target: ICAM-1 on HeLa cells (UniProt P05362 28-532, limits assumed); assay: cell-based or functional assay
Sequence (P05362 28-532 limits assumed): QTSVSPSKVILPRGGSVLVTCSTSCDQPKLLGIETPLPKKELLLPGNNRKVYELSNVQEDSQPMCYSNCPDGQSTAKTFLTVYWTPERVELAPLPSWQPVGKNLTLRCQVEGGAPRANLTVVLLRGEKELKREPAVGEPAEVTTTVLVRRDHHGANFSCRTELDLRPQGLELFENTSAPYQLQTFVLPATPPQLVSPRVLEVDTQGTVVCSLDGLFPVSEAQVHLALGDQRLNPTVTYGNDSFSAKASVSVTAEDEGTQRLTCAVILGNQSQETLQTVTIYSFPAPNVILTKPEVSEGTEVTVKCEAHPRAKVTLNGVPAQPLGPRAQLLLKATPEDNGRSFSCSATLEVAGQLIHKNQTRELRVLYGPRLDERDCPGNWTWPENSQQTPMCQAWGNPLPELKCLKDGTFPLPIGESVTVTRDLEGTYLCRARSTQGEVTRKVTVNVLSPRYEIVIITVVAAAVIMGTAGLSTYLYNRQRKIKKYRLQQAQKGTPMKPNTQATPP
// reported EC 50 (µM): 50% protection of HeLa cells against HRV15 infection at 1 MOI for each item listed

// solved cases for EC 50 (µM): 50% protection of HeLa cells against HRV15 infection at 1 MOI follow
Msc1A6 (parental mouse monoclonal antibody 1A6 in the form of scFv) (scFv, V domains shown, Tested as a single-chain Fv (one polypeptide); also called Mouse 1A6 scFv; mouse IA6 scFv) VH: EVQLQQSGAELVKPGASLKLSCTASGFNIKDTYIHWMKQRPEQGLEWIGRIDPANDNTIYDPKVQGKATMTADTSSNTAYLQLNSLTSEDTAVYYCTTSGYWFAYWGQGTLVTVSS VL: DIVLTQSPATLSVTPGDSVSLSCRASQSISNNLHWYQQKHSESPRLLIKHASQSISGIPSRFSGSGSGTDFTLSINSVETEDFGMFFCQQSNSWPYTFGGGTKLEIKR; > 10 µM
HscI (humanized 1A6 scFv HumI) (scFv, not shown: carboxy-terminal His tag of vector pBAD/pIII A) scFv: DIQMTQSPSSLSASVGDRVTITCRASQSISNNLHWYQQKPGKAPKLLIKHASQSISGVPSRFSGSGSGTDFTLTISSLQPEDFATYYCQQSNSWPYTFGQGTKVEIKRGGGGSGGGGSGGGGSGGGGSEVQLVESGGGLVQPGGSLRLSCAASGFNIKDTYIHWMRQAPGKGLEWVARIDPANDNTIYDPKVQGRFTMSADTSKNTAYLQMNSLRAEDTAVYYCTTSGYWFAYWGQGTLVTVSS; > 10 µM

Which EC 50 (µM): 50% protection of HeLa cells against HRV15 infection at 1 MOI is listed for HscF (humanized 1A6 scFv HumF) (scFv, not shown: carboxy-terminal His tag of vector pBAD/pIII A) scFv: DIQMTQSPSSLSASVGDRVTITCRASQSISNNLHWYQQKPGKAPKLLIYHASQSISGVPSRFSGSGSGTDFTLTISSLQPEDFATYYCQQSNSWPYTFGQGTKVEIKRGGGGSGGGGSGGGGSGGGGSEVQLVESGGGLVQPGGSLRLSCAASGFNIKDTYIHWVRQAPGKGLEWVARIDPANDNTIYADSVKGRFTISADDSKNTAYLQMNSLRAEDTAVYYCTTSGYWFAYWGQGTLVTVSS ?
0.29 µM

Which EC 50 (µM): 50% protection of HeLa cells against HRV15 infection at 1 MOI is listed for HscD (humanized 1A6 scFv HumD) (scFv, not shown: carboxy-terminal His tag of vector pBAD/pIII A) scFv: DIQMTQSPSSLSASVGDRVTITCRASQSISNNLHWYQQKPGKAPKLLIYHASQSISGVPSRFSGSGSGTDFTLTISSLQPEDFATYYCQQSNSWPYTFGQGTKVEIKRGGGGSGGGGSGGGGSGGGGSEVQLVESGGGLVQPGGSLRLSCAASGFNIKDTYIHWVRQAPGKGLEWVARIDPANDNTIYADSVKGRFTISSDDSKNTAYLQMNSLRAEDTAVYYCTTSGYWFAYWGQGTLVTVSS ?
0.05 µM
